Tested on: HOP-92 NSCLC
Test: NCI-60 one-dose screen, 48 h
Settings: 10 µM unless noted
The panel holds about 83,000 compounds, 20% with a hit somewhere; the sample as a whole holds those more often. The source made the active and inactive calls. Rule for the calls: active = growth percent below 10; inactive = the rest.
Would you mind answering with one of these outcomes? 1 = active, 0 = inactive

{"Compound": "C=CCOc1cccc(/C=C2\\SC(=Nc3ccc(O)cc3)NC2=O)c1", "Discrete Label": 0}
{"Compound": "O=C1C2=C(CCN(Cc3ccccc3)C2)N2CCN=C2N1Cc1ccc(C(F)(F)F)cc1", "Discrete Label": 0}
{"Compound": "O=C1Nc2ccccc2/C1=N/N=C/c1ccsc1", "Discrete Label": 0}
{"Compound": "Cc1nc(Nc2ccc(NC(=S)Nc3ccccc3)cc2)nc2nc(Nc3ccc(S(=O)(=O)O)cc3)[nH]c(=O)c12", "Discrete Label": 0}
{"Compound": "NS(=O)(=O)Oc1ccc(-c2sc3cc(O)ccc3c2C(=O)c2ccc(OCCN3CCCCC3)cc2)cc1", "Discrete Label": 0}
{"Compound": "Clc1ccc(/C=C/c2nc(Nc3ccc(Cl)cc3)c3ccccc3n2)cc1", "Discrete Label": 0}

Challenge: Write down the call the test reported for this compound. Item: O=C(Nc1ccccn1)[C@H](O)[C@@H](O)C(=O)N1CCOCC1
Response given: 0

---

Tested on: A498 renal
Assay: NCI-60 one-dose screen, 48 h (100 = growth as untreated, 0 = no growth, -100 = all killed)
Details: 10 µM unless noted
Compounds without any hit were thinned out: in the full panel of roughly 83,000, 20% have a hit.
Give measured growth for each item. Keep answers brief.
Give bare numbers, in %.

Could you report growth for every entry in the following list?
1. COc1cc2oc(-c3cccc(C(=O)Nc4ccc(C)cc4)c3)cc(=O)c2c(OC)c1OC
2. CCNCCNc1cc(-c2ccc(Cl)cc2)c(C#N)c2nc3ccccc3n12
3. NC(=O)c1c(NC(=O)c2ccc(C(F)(F)F)cc2Cl)sc2c1CCC(=O)C2
4. COc1ccc(/C=C2\COc3ccc(O)c(O)c3C2=O)c(OC)c1
5. O[C@H]1CO[C@H]2[C@@H]1OC[C@@H]2Oc1ccc(Nc2ccnc(Nc3ccc(O[C@H]4CO[C@H]5[C@@H]4OC[C@@H]5O)c(Cl)c3)n2)cc1Cl
6. Cc1ccc(S(=O)(=O)Nc2sccc2-c2nc(-c3ccccc3)no2)cc1
7. COc1cc2c(=O)n(CCCn3ccnc3)c3c4cc5c(cc4ccc3c2cc1OC)OCO5
8. CCOC(=O)C1C(=O)C=C(c2cnccn2)CC1c1ccc(OC)c(OC)c1 (stereo not given)

Response given:
1: 6.03; 2: 2.87; 3: 61.9; 4: 114; 5: 22.7; 6: 96.3; 7: -75.6; 8: 119

Could you report growth for every entry in the following list?
1. CCNCCNc1cc(-c2cccc(C(F)(F)F)c2)c(C#N)c2nc3ccccc3n12
2. CS(=O)(=O)c1ccc(-c2[nH]c3ccc(F)cc3c2/C=N/O)cc1
3. COc1cc(/C=C2\C=C(c3ccccc3)N(CCc3ccccc3)C2=O)cc(OC)c1OC
4. C=C(C)[C@@H]1CC[C@]2(CO)CC[C@]3(C)[C@H](CC[C@@H]4[C@@]5(C)C=C(C#N)C(=O)C(C)(C)[C@@H]5CC[C@]43C)[C@@H]12
5. CN(C)CCOC(=O)Nc1ccc(Cl)cc1

Response given:
1: 81.4; 2: 99.2; 3: 34.2; 4: -0.306; 5: 113

Could you report growth for every entry in the following list?
1. N#Cc1cccc(-c2nc3ccccn3c2NCCN2CCOCC2)c1
2. CNC1(C#N)CCN(Cc2ccccc2)CC1

Response given:
99.1
110

---

System: 786-0 renal
Assay: NCI-60 one-dose screen, 48 h
Settings: 10 µM unless noted
The panel holds about 83,000 compounds, 20% with a hit somewhere; the sample as a whole holds those more often. Active and inactive are the calls of the source. How the source made its calls: active means growth percent below 10; inactive means the rest.
Would you mind answering with one of these outcomes? true (active), false (inactive)

Below are worked cases with known answers.
{"Compound": "Cc1nc(Nc2ccc(NC(=S)Nc3ccccc3)cc2)c2ccccc2n1", "Discrete Label": "false"}
{"Compound": "Cc1nc(Nc2ccc(NC(=S)Nc3ccccc3)cc2)nc2nc(Nc3ccc(S(=O)(=O)O)cc3)[nH]c(=O)c12", "Discrete Label": "false"}
{"Compound": "C=CC(=O)N[C@@H](Cc1ccc(-c2cc(Cl)cc(Cl)c2)cc1)[C@@H](O)[C@H](O)C(=O)O", "Discrete Label": "false"}
{"Compound": "O=[N+]([O-])c1ccc2[nH]cc(-c3c4ccsc4cc4[nH]c5ccc([N+](=O)[O-])cc5c34)c2c1", "Discrete Label": "true"}

Challenge: Write down the call the test reported for this compound. Item: C=C1C(=O)O[C@H]2[C@H]1CC/C(COC(=O)/C=C\C(=O)NCc1ccc(Cn3c(=O)sn(CCCI)c3=O)cc1)=C\CC[C@@]1(C)O[C@@H]21
Response given: true

---

Tested on: SW-620 colon
Experiment: NCI-60 one-dose screen, 48 h
Conditions: 10 µM unless noted
This is part of a sample that, as a whole, favours compounds with a hit. Of some 83,000 tested, about 20% had one in any assay. Activity calls are given as the source filed them. Rule for the calls: active = growth percent below 10; inactive = the rest.
Would you mind answering with one of these outcomes? 1 = active, 0 = inactive

Below are worked cases with known answers.
{"Compound": "CSc1ncc(C)c(Nc2ccc(Cl)cc2)n1", "Discrete Label": 0}
{"Compound": "COc1ccc(/C=C(\\C#N)n2nnc3cc(F)c(F)cc32)c(OC)c1OC", "Discrete Label": 0}
{"Compound": "O=C1CSC(c2ccc(O)cc2)N1c1nnc(Cn2cnnc2)o1 (stereo not given)", "Discrete Label": 0}
{"Compound": "COc1ccc(/C(C)=C(\\c2ccc(Cl)cc2)c2ccc(OCCN3CCCCCC3)cc2)cc1F", "Discrete Label": 0}
{"Compound": "COc1cc2ccccc2cc1C(=O)NC(=S)Nc1ccc(-c2nc3ccccc3[nH]2)cc1", "Discrete Label": 0}

Challenge: Write down the call the test reported for this compound. Item: Cc1c(C(=O)O[C@H]2[C@@H]3[C@H](C)CC[C@H]3[C@]3(C)O[C@@]2(C2CCCCC2)C[C@H]3OC(=O)CO)ccc2ccccc12
Response given: 0

Challenge: Write down the call the test reported for this compound. Item: O=C(NCCOCCOCCOCCNC(=O)c1cc2c(o1)C(=O)c1ccccc1C2=O)NC12CC3CC(CC(C3)C1)C2
Response given: 1

Challenge: Write down the call the test reported for this compound. Item: COc1cc2cc(Oc3ccc(NC(=O)Nc4cc(C(F)(F)F)cc(C(F)(F)F)c4)cc3)c(C)nc2cc1OCCN1CCCCC1
Response given: 1

Challenge: Write down the call the test reported for this compound. Item: Nc1c(-c2nc3ccccc3c(=O)[nH]2)nnn1-c1ccc(Cl)cc1
Response given: 0

Challenge: Write down the call the test reported for this compound. Item: COc1ccc(N(C)c2nc(Cl)nc3cnn(C)c23)cc1
Response given: 0

---

System: UACC-62 melanoma
Experiment: NCI-60 one-dose screen, 48 h (100 = growth as untreated, 0 = no growth, -100 = all killed)
Details: 10 µM unless noted
Description: Growth inhibition of the UACC-62 human tumor cell line is measured as a screen for anti-cancer activity. Cells are grown in 96 well plates and exposed to the test compound for 48 hours. Compounds are tested at a single concentration, which is 10^-5 M for most compounds. The reported endpoint is percent growth (GI% or GIPRCNT), where numbers from 0 - 100% represent growth inhibition, and numbers from -100% - 0 represent cell death. For example, a value of 40 represents 60% growth inhibition. […]
This is part of a sample that, as a whole, favours compounds with a hit. Of some 83,000 tested, about 20% had one in any assay. Activity calls are given as the source filed them. How the source made its calls: active means growth percent below 10; inactive means the rest.
Give measured growth for each item. Keep answers brief.

{"Compound": "COc1ccc(NC(=O)c2cccc(-c3cc(=O)c4c(O)c(OC)c(OC)cc4o3)c2)cc1", "growth": "81.1% (inactive)"}
{"Compound": "O=C1NC(=S)S/C1=C\\N1N=C(c2ccc(Cl)cc2)CC1c1ccc(F)cc1 (centres undefined)", "growth": "73.6% (inactive)"}
{"Compound": "CCn1c(Sc2nnc(NC(=O)CSC(=S)N3CCCCC3)s2)nc2c1c(=O)n(C)c(=O)n2C", "growth": "60.8% (inactive)"}

Could you report growth for every entry in the following list?
1. CC1(C)C(=O)/C(=C\c2cccnc2)C[C@]2(C)[C@H]3CC=C4[C@@H]5C[C@@](C)(C(=O)O)CC[C@]5(C)CC[C@@]4(C)[C@]3(C)CC[C@@H]12
2. N#Cc1c(N)nc2c(nnn2-c2cccc(Br)c2)c1N
3. C[C@@H]1C(=O)N(C[C@H](Cc2ccccc2)NC(=O)OCc2ccccc2)[C@]1(Cc1ccccc1)C(=O)OC(C)(C)C

Response given:
["97.7% (inactive)", "95.6% (inactive)", "51.9% (inactive)"]

Could you report growth for every entry in the following list?
1. COc1ccc(-c2nnc(SCC(=O)NC3=NN=C(c4ccccc4)CS3)o2)cc1
2. CN(C)S(=O)(=O)n1cnc([C@@H]2[C@@H]3C(=O)OC[C@@H]3C[C@]23N=CN(Cc2ccccc2)C3=O)c1
3. c1ccc2c(c1)nc(-n1ccnc1)c1nc3ccccc3n12

Response given:
1. 95.2% (inactive)
2. 106% (inactive)
3. 72% (inactive)
